- test.details: qHTS assay for small molecule disruptors of mitochondrial membrane potential screened against the NCATS CANVASS Library (AID 1347389); further: nearly all actives have a fitted effect of over 60% in size
- setup.conditions: HepG2 mitochondrial membrane potential, m-MPI red/green ratio, 1.5 h; series mostly up to 46.1 µM
Inconclusive results are not listed. Activity calls are given as the source filed them. The call rests on the fitted dose curve; in most records, active means well fitted inhibition curve with a large enough effect; inconclusive means small, poorly fitted or top-dose-only effect; inactive means flat fitted curve, though single readings scatter.
Form entry, call: pick from active, inactive

O=Cc1ccc2n1C[C@@]1(OC2)O[C@H](CO)[C@@H](O)[C@@H]1O :: inactive
CC(=O)[C@@H]1[C@@H](O)C[C@H]2[C@]3(C)CC[C@H]4C(C)(C)CCC[C@]4(CO)[C@H]3C[C@H]3OC(=O)[C@@H]1[C@@]32C :: inactive
O=c1cc(-c2ccc(O)c(O[C@@H]3O[C@H](CO)[C@@H](O)[C@H](O)[C@H]3O)c2)oc2cc(O[C@@H]3O[C@H](CO)[C@@H](O)[C@H](O)[C@H]3O)cc(O)c12 :: inactive

Problem: Hello, I am checking results. What call was entered for C=C1[C@H]2CC[C@@]3(C=CC(=O)[C@@](C)(CCC(=O)Nc4c(O)ccc(C(=O)O)c4O)C3C2)[C@H]1O (stereo partly drawn) ?
Solution: inactive

Problem: Hello, I am checking results. What call was entered for CC1=CC[C@@]2(C[C@@H]1O)[C@@H](C(=O)O)CC[C@H]2C(C)C ?
Solution: inactive

Problem: Hello, I am checking results. What call was entered for C[C@@]12C[C@@H](C[C@H]3C(=O)O[C@@H](c4ccoc4)[C@H](OC(=O)c4ccccc4)[C@@H]31)OC2=O ?
Solution: inactive

Problem: Hello, I am checking results. What call was entered for COc1cc(/C=C/C(=O)O)ccc1O ?
Solution: inactive

Problem: Hello, I am checking results. What call was entered for COc1ccc([C@@H]2c3cc(OC)c(OC)cc3C(=O)C(C)C2C)cc1OC (stereo partly drawn) ?
Solution: inactive

Problem: Hello, I am checking results. What call was entered for C=C1C[C@@]23C=CC(=O)[C@@](C)(CCC(=O)Nc4c(O)ccc(C(=O)O)c4O)C2C[C@@H]1CC3 (stereo partly drawn) ?
Solution: inactive

Problem: Hello, I am checking results. What call was entered for C=CC(C)(C)C(=O)[C@@H](C)[C@@H]1CC[C@](C)(C=C)O1 ?
Solution: inactive

Problem: Hello, I am checking results. What call was entered for CC1C(=O)C23CCC1C[C@@]21O[C@H]2C(C)(C)C=CC(=O)[C@@]23COC1=O (stereo partly drawn) ?
Solution: inactive

Problem: Hello, I am checking results. What call was entered for CCCCCCCCC[C@@H]1C[C@@H]2CC[C@H]3[C@@H](C(=O)OCCCCN=C(N)N)[C@@H](C)N=C(N1)N23 ?
Solution: inactive

Problem: Hello, I am checking results. What call was entered for C[C@@]12CCC[C@@](C)(C(=O)O)[C@H]1C[C@@H](O)[C@]13C[C@H]4C[C@H](O[C@@]4(C)C1)[C@@H]23 ?
Solution: inactive

Problem: Hello, I am checking results. What call was entered for CC(C)=CCC/C(C)=C/Cc1c(O)c(CC=C(C)C)c(O)c2c(=O)c3cc(O)ccc3oc12 ?
Solution: active

Problem: Hello, I am checking results. What call was entered for C/C=C/c1cc(OC)c2c(c1)[C@@H](C)[C@H](c1ccc(O)c(OC)c1)O2 ?
Solution: inactive

Problem: Hello, I am checking results. What call was entered for C[C@]12CC[C@]3(C1)[C@H](CC2=O)CC(OC(=O)c1ccccc1)[C@H]1[C@@](CO)(C(=O)O)CCC[C@@]13C (stereo partly drawn) ?
Solution: inactive

Problem: Hello, I am checking results. What call was entered for CC(C)(Br)[C@@H](Cl)C[C@H](Br)[C@](C)(Cl)/C=C/Br ?
Solution: active

Problem: Hello, I am checking results. What call was entered for C/C=C1/CC[C@@H]2c3[nH]c4ccccc4c3CCN2C1 ?
Solution: inactive

Problem: Hello, I am checking results. What call was entered for CCCCCC[C@H](CCCCC[C@@H](O)C(N)=O)OC(=O)[C@@H]1CC=CN1C(=O)c1ccccc1O ?
Solution: inactive

Problem: Hello, I am checking results. What call was entered for COc1cc(/C=C2/C(=O)N(c3ccc(O)cc3C(=O)O)[C@H](c3ccc(O)c(OC)c3)C2C(=O)Nc2ccc(O)cc2C(=O)O)ccc1O (stereo partly drawn) ?
Solution: inactive

Problem: Hello, I am checking results. What call was entered for C=CC(=C)CC[C@]1(C)[C@H]2C[C@H](OC(=O)C(C)CC)C=C3[C@H](OC(C)=O)O[C@H](OC(C)=O)[C@@]32[C@H](OC)C[C@@H]1C (stereo partly drawn) ?
Solution: active

Problem: Hello, I am checking results. What call was entered for C=C[C@]1(C)CC[C@@H]([C@H](C)C(=O)/C=C/C(C)C)O1 ?
Solution: inactive

Problem: Hello, I am checking results. What call was entered for C=C(C)CC[C@H](Cc1c(O)cc(O)c2c1O[C@H](c1ccc(O)cc1O)CC2=O)C(=C)C ?
Solution: active

====

- test.details: Primary fluorescence-based thiol-reactive (MSTI) qHTS assay for identification of artifact compounds. (AID 1845221); further: nearly all actives have a fitted effect of over 65% in size
- setup.conditions: MSTI thiol-reactivity probe, 1 h; series mostly up to 53.8 µM
Results filed as inconclusive are left out. Calls of active or inactive are those of the source. Calls come from the whole dose curve; as a rule, active = well fitted inhibition curve with a large enough effect; inconclusive = small, poorly fitted or top-dose-only effect; inactive = no such curve, though single readings can be large or run the other way.
Form entry, call: pick from true (1) = active, false (0) = inactive

Problem: Hello, I am checking results. What call was entered for NC(=Nc1ccc(CCNCc2cccc(Cl)c2)cc1)c1cccs1 ?
Solution: false (0)

Problem: Hello, I am checking results. What call was entered for COC1CC(=O)C23C(=O)NC(CC(C)C)C2C(C)C(C)=CC3/C=C(\C)CCC(O)C1O (centres undefined) ?
Solution: false (0)

Problem: Hello, I am checking results. What call was entered for CCC(=O)Nc1cccc(Oc2nc(Nc3ccc(N4CCN(C)CC4)cc3OC)ncc2Cl)c1 ?
Solution: true (1)

====

- test.details: qHTS for Inhibitors of Plasmodium falciparum (CP250) proliferation (AID 504320);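 further: plate controls were DMSO vehicle for no effect and 0.29 µM artemisinin control for full effect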
- setup.conditions: P. falciparum CP250 in erythrocytes, SYBR Green DNA, 72 h; series mostly up to 6.7 µM
- Excerpt: Plasmodium falciparum is a virulent malarial parasite that kills 1-2 million people worldwide each year. Malaria not only inflicts tremendous suffering and morbidity on the human population, but has dramatically influenced the course of civilization with profound sociological and economic implications (Shah, S. 2010). […] Because mature erythrocytes lack DNA, only Plasmodium-derived DNA is detected. […]
Records with an inconclusive call do not appear. Active and inactive are the calls of the source. Calls come from the whole dose curve; as a rule, active = well fitted inhibition curve with a large enough effect; inconclusive = small, poorly fitted or top-dose-only effect, or effect the other way; inactive = flat fitted curve, though single readings scatter.
endpoint: outcome

// known answers, use as guide
COc1ccc2c(c1)CO[C@H]([C@H](O)CO)[C@H]2C=Cc1ccccc1 :: inactive
CCCCC1=CC2=C(c3ccco3)C(=O)C(C)(OC(=O)c3ccc(OC)cc3)C(=O)C2=CN1CC1CC1 (centres undefined) :: inactive
COC(=O)CCCC1=CC2=C(c3ccccc3)C(=O)C(C)(OC(=O)C3CCCC3)C(=O)C2=CN1Cc1ccc(OC)cc1 (centres undefined) :: inactive
CC(=O)OC[C@H]1O[C@H](C#CC2=CCCCC2)C=C[C@H]1OC(C)=O :: inactive
COC(=O)c1ccc(CN2C(=O)[C@@]3(CC(C)=C[C@@H](COc4ccccc4)O3)c3ccccc32)cc1 :: inactive

outcome reading for C[C@@H]1CC[C@H]2C(=O)N(Cc3cccc([N+](=O)[O-])c3)C[C@@H](O)CN2[C@@H]1c1ccc(Br)cc1 : inactive

outcome reading for COC(=O)CCC(=O)OC1(C)C(=O)C=C2C=C(C3CC3)N(CCCOC(C)C)C=C2C1=O (centres undefined) : inactive

outcome reading for COC(=O)C1=C(C)N(CC#C[Si](C)(C)C)C(=O)N(C(C)=O)C1c1ccccc1 (centres undefined) : inactive

outcome reading for COC(=O)CC1OC1[C@H](C)[C@@H](OC)C(C)C (some centres undefined) : inactive

====

- test.details: HPAF-II 18hr Apoptosis Induction qHTS against the NCATS CANVASS Library (AID 1347360); further: 0% is about no effect
- setup.conditions: HPAF-II caspase-3/7 luminescence; series mostly up to 46.1 µM
Records with an inconclusive call do not appear. Calls of active or inactive are those of the source. Calls come from the whole dose curve; as a rule, active = well fitted curve in the direction sought with a large enough effect; inconclusive = small, poorly fitted or top-dose-only effect, or another doubt; inactive = no such curve, though single readings can be large or run the other way. Numbered stars: 1 amine (or outer) side, 2 acyl side, 3 side chain; on linkers, the order of the positions; unused ones are H or OH. Bridge positions count the residues as written; N and C are the ends. Square brackets hold non-standard residues; d marks the D form. Peptide text beside a SMILES is read from it. ξ: configuration not given here. Phe(3R-OH) = O=C([C@@H](N[*:1])[C@H](O[*:3])c1ccccc1)[*:2]; NMeTrp(4-OMe) = CN[C@@H](Cc1c[nH]c2cccc(OC)c12)C(=O)O; ξThr(3R)(O-yl) = C[C@@H](O[*:3])C(N[*:1])C(=O)[*:2]; NMeThr(3ξ) = CN[C@H](C(=O)O)C(C)O; NMeL = CN[C@@H](CC(C)C)C(=O)O; NMeV = CN[C@H](C(=O)O)C(C)C; ξIle = CC[C@H](C)C(N)C(=O)O; ξV = CC(C)C(N)C(=O)O
Form entry, call: pick from YES for active, NO for inactive

Check out these entries, answers already filled in.
CN1C(=O)C2C(N=CN2C)N(C)C1=O (centres undefined) :: NO
C=C1[C@H]2CC[C@@]3(C=CC(=O)[C@@](C)(CCC(=O)Nc4c(O)ccc(C(=O)O)c4O)C3C2)[C@H]1O (some centres undefined) :: NO
CC[C@H](C)C(NC(=O)[C@@H](NC)C(C)C)C(=O)NC1C(=O)N(C)[C@@H](C(C)O)C(=O)N[C@@H](C(C)C)C(=O)N(C)[C@@H](CC(C)C)C(=O)NC(C(C)C)C(=O)N(C)[C@@H](C(C)C)C(=O)N(C)[C@@H](Cc2c[nH]c3cccc(OC)c23)C(=O)N[C@@H](C(C)C)C(=O)N[C@@H]([C@H](O)c2ccccc2)C(=O)N[C@@H](C(C)C)C(=O)O[C@@H]1C (stereo partly drawn) (H-[NMeV][ξIle][ξThr(3R)(O-yl)][NMeThr(3ξ)]V[NMeL][ξV][NMeV][NMeTrp(4-OMe)]V[Phe(3R-OH)]V; ester 3-C) :: NO
CN1CC[C@]2(c3cccc4c3N[C@@H]3N(C)CC[C@]43[C@@]34CCN(C)[C@@H]3Nc3ccccc34)c3ccccc3N[C@H]12 :: NO

Problem: Hello, I am checking results. What call was entered for CCCCCCCCCCCCCCCC(=O)OC/C=C(\C)CCCC(C)CC(C)C(C)C (centres undefined) ?
Solution: NO

Problem: Hello, I am checking results. What call was entered for CCC[C@@H](C)/C=C(\C)[C@H](O)[C@H](C)/C=C/CC[C@@H](O)[C@H](C)[C@H](O)[C@H](C)[C@H](O)[C@H](C)[C@H]1O[C@H]([C@H](C)C(=O)O)CC[C@@H]1C ?
Solution: NO
